Give IC50 for every item shown.
- testedTarget: human mGluR5d (Homo sapiens)
- Construct: The separate IP3 assay names GHEK cells
- Sequence (P41594 21-942 isoform P41594-3 limits assumed): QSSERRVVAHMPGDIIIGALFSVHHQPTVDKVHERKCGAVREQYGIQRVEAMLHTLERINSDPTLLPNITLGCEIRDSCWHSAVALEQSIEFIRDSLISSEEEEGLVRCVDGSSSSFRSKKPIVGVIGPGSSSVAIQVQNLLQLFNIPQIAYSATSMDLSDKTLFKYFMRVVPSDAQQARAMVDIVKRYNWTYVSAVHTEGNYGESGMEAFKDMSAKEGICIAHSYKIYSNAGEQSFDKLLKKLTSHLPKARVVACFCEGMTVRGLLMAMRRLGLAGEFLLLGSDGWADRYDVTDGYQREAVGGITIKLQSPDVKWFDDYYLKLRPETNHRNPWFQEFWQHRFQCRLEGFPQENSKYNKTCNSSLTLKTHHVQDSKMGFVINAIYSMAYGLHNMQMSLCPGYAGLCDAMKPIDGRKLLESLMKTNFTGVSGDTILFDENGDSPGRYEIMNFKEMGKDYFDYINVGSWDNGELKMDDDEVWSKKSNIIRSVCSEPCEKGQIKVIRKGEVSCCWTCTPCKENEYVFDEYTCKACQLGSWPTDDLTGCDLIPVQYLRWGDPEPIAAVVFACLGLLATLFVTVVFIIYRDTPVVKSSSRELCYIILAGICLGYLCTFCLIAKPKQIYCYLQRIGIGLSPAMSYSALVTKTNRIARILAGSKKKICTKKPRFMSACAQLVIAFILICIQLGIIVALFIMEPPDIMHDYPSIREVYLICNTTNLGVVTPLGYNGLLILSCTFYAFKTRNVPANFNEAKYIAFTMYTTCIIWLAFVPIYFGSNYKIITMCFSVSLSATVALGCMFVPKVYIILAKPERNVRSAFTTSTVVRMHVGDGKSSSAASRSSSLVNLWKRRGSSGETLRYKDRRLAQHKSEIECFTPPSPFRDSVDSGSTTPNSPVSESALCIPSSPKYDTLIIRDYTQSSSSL
- methodSummary: FLIPR assay: mobilization of intracellular calcium in cells expressing human mGluR5d
- conditionsUsed: antagonism of agonist-induced [Ca2+]i response, read-out: FLIPR hmGluR5d
Numbers only, in nM.

Use these answered entries as a reference point.
INSERT INTO measurements (smi, measurednumber) VALUES
  ('C[C@@H](Oc1nnc(-c2ccc(C(N)=O)cc2)n1C)c1noc(-c2cccc(Cl)c2)n1', 8),
  ('Cc1cccc(-n2nnc([C@@H](C)Oc3nnc(-c4ccc(C(N)=O)cn4)n3C)n2)c1', 6),
  ('C[C@@H](Oc1nnc(-c2ccc(C(N)=O)cc2)n1C)c1nnn(-c2cccc(Cl)c2)n1', 6);

Now consider the entry below.
Provide measured IC50 on human mGluR5d (Homo sapiens) for C[C@@H](Oc1nnc(-c2ccc(C(N)=O)cn2)n1C)c1nnn(-c2cccc(Cl)c2)n1 please.
5

Ref: patent US20090111857A1
